From: paper PMC12423313

Molecular target: T1, OROV nucleoprotein (N), recombinant, strain BeAn19991 (Oropouche virus strain BeAn19991)
T1 chain: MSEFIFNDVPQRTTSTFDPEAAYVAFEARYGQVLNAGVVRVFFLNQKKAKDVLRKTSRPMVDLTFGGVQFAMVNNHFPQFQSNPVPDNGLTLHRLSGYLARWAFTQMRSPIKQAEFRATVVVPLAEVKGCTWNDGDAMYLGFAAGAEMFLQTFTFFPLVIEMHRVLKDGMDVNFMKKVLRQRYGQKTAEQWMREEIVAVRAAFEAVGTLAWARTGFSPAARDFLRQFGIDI
Assay: ELISA
Details: both partners purified
Quantity Kind: binding result

- Binder: "nanobody NpF2, His8-tagged (VHH, as the VHH of m14; also called OROV Np Nb F2 H8; not shown: His8, C-terminal, kept) VHH: QVQLVESGGGAVQAGGSLRLSCAASGRTFSSFPMGWFRQAPGKEREFIAAINWSGASKYYADSVKGRFAISRDNAKNTVYLQMNSLTPEDTAVYSCAAGSGRYGYTFSKEYTYWGQGTQVIVAS"
  Quantity Kind: "binding result"
  Meas Value: "binds"
- Binder: "nanobody NpE2, His8-tagged (VHH, as the VHH of m12; also called OROV Np Nb E2 H8; not shown: His8, C-terminal, kept) VHH: QVQLVESGGGLVQAGDSLRLSCVASGFTPNPAVSWVRQAPGKDLEWVSSIYHGDITSYATSVKGRFTISRDNAKNTVYLQMNSLKPEDSAIYYCTKGDSRGQGTQVTVSS"
  Quantity Kind: "binding result"
  Meas Value: "binds"
- Binder: "nanobody NpD2, His8-tagged (VHH, as the VHH of m11; also called OROV Np Nb D2 H8; not shown: His8, C-terminal, kept) VHH: QVQLVESGGGLAQPGGSLRLSCAASGFTLDYYSIGWFRQAPGKEREGVSCISSGGSTYYADSVKGRFAISSDNAKNTVYLQMNSLKPEDTAVYYCAADIMSCPGKYSAVADYWGQGTQVIVDS"
  Quantity Kind: "binding result"
  Meas Value: "binds"
